All values here come from PubChem BioAssay.

# measurement_description: drug combination growth inhibition, ovarian cancer – cell-based, oncology-focused library, rucaparib conditional, profiling panel (AID 1508598)
# assay_setup: patient-derived ovarian cancer cells, CellTiter-Glo viability, 144 h; at 0.000305 µM; OCI-P5x cells; without rucaparib; stronger effect = lower value
endpoint_label: viability (%)
State the answer as a number, implicitly in %.

> print(dat)
                               entry.smiles  value.observed
1  Oc1cccc(-c2nc(N3CCOCC3)c3oc4ncccc4c3n2)c1             103

Tell me the measured viability of Cc1ccc(C(=O)Nc2ccc(CN3CCN(C)CC3)c(C(F)(F)F)c2)cc1C#Cc1cnc2cccnn12 , please.
114

Which viability value is on record for CS(=O)(=O)N1CCN(Cc2cc3nc(-c4cccc5[nH]ncc45)nc(N4CCOCC4)c3s2)CC1 ?
94.9

Fill in: viability of CC(=O)Nc1cccc(-n2c(=O)n(C3CC3)c(=O)c3c(Nc4ccc(I)cc4F)n(C)c(=O)c(C)c32)c1 is ___
102

Which viability reading was recorded for the molecule CCN(CC)CCCCNc1ncc2cc(-c3cc(OC)cc(OC)c3)c(NC(=O)NC(C)(C)C)nc2n1 ?
89.9

Look at this molecule and give its reported viability. NC(=O)Nc1cc(-c2cccc(F)c2)sc1C(=O)N[C@H]1CCCNC1
79.5

// viability lookup, key: Nc1ccc(C(=O)Nc2cccc(-c3nc(N4CCOCC4)c4oc5ncccc5c4n3)c2)cn1
86.3

// lookup viability for CN[C@H]1CN(c2ccc3c(=O)c(C(=O)O)cn(-c4nccs4)c3n2)C[C@@H]1OC
105

viability for Cc1cn(-c2cc(NC(=O)c3ccc(C)c(Nc4nccc(-c5cccnc5)n4)c3)cc(C(F)(F)F)c2)cn1 ?
105
